Assign protein stability index to each entry below.
B1: SPATS1 (parent)
chain: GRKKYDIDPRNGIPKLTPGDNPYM

# Variants of: B1
# Protocol summary: protein stability index of a GFP-peptide fusion (GPS, HEK-293T) (PSI 1-6); higher = more stable;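 further: lentivirally expressed fusions sorted by FACS into six bins by GFP to DsRed ratio, PSI derived from sequencing read proportions per bin multiplied by bin number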
# Condition info: c terminus: a fixed tail appended
Answers are plain numbers.

Example entries and their recorded answers appear below.
[
  {
    "Mutation": "D6T",
    "Recorded measurement": 3.16
  },
  {
    "Mutation": "I7E",
    "Recorded measurement": 4.5
  },
  {
    "Mutation": "D6C",
    "Recorded measurement": 2.89
  },
  {
    "Mutation": "K15H",
    "Recorded measurement": 3.55
  }
]

List the reported protein stability index of each variant below.
1. K15T
2. Y23H

1: 3.78; 2: 3.93
